Taken from patent US20150010546A1.

- system tested: T1, human HGF (R&D material and Peprotech material, values averaged over both) (human, UniProt P14210 32-728)
- T1 construct: As printed they differ in one letter
- T1 sequence (P14210 32-728 limits assumed): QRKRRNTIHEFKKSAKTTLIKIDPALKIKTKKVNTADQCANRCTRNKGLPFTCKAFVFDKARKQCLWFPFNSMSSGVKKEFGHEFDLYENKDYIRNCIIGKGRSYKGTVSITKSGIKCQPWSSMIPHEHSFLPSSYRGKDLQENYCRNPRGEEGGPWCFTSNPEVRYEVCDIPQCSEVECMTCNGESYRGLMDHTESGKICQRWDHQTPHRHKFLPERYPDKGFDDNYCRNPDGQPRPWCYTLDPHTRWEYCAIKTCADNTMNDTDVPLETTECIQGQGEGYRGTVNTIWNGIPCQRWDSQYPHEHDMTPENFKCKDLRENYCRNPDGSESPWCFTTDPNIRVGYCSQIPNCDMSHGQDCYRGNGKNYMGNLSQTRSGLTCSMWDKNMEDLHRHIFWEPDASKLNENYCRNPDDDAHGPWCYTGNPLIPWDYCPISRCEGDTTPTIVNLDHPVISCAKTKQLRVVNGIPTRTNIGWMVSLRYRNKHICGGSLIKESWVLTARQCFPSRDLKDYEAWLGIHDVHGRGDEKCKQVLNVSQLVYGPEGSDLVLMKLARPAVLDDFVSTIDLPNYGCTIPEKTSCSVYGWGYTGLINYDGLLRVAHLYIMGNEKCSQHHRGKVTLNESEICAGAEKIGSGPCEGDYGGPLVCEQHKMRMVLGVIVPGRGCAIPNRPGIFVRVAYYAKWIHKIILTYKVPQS
- experiment summary: SPR (Biacore T100), purified Nanobody, average of R&D and Peprotech HGF
pKd: −log10 of the molar value.
Assign class by pKd: not lower than 9 means true; lower than 9 means false.

- 1E9 (VHH, anti-HGF Nanobody clone; not shown: c-myc and His6 tags) VHH: EVQLVESGGGLVQPGGSLRLSCAASGFTLDHYTIGWFRQAPGNEREGVSCISSLDGSTYYADSVKGRFTISRDNAKDTVYLQMNSLKPEDTAVYYCAVAGCGAYGLIPYDYWGQGTQVTVSS: false
- 6B2 (VHH, anti-HGF Nanobody clone; not shown: c-myc and His6 tags) VHH: EVQLVESGGGLVQAGGSLRLSCAASGRTFSSYAMGWFRQAPGKEREFVAAINWSGDSTYYADSVKGRFTISRDNAKNTVYLQMNSLKPEDTAVYYCAAGDVGRPDLYEYDYWGQGTQVTVSS: true
- 6G6 (VHH, anti-HGF Nanobody clone; not shown: c-myc and His6 tags) VHH: EVQLVESGGGLAQAGGSLRLSCAASGRSLSNYAMGWFRQAPGKEREIVCAISRSGSITTYADSVKGRFTIAKDNAANTVYLQMNSLKPEDTAAYYCAADPMYYGIPDQNWDYWGQGTQVTVSS: false
